Every entry's value here was drawn from patent US12435061B2.

Target of assay: hTRPV3 (Homo sapiens (Human))
Assay: Whole-cell patch clamp, hTRPV3 Phase 1 / Phase 2 currents
Type: cell-based
Experimental parameters: Phase 2 current; read-out: hTRPV3 (nM) (Phase 2)
Measure name: IC50 (nM)
Give bare numbers, in nM.

// solved cases for IC50 follow
NC(=O)c1cc(-c2ccccc2)ncc1N1CC[C@@H](Oc2ccc(C(F)(F)F)cn2)C1 [Compound 1-99]
349
OCc1cc(C(O)c2ccccc2Cl)ccc1N1CC[C@H](Oc2ncccc2F)C1 (stereo partly drawn) [Compound 1-264]
79.3
CCc1cc(F)ccc1Oc1ccc(N2CC[C@H](Oc3ccccn3)C2)c(CO)c1 [Compound 1-330]
56.6
OCc1cc(Oc2ccccc2F)ccc1N1CC[C@H](Oc2ncccc2F)C1 [Compound 1-298]
52.9

Please give IC50 for each item listed below.
1. Oc1cc(-c2ccccc2Cl)ccc1N1CC[C@@H](Oc2ccc(C(F)(F)F)cn2)C1 [Compound 1-113]
2. COc1ccccc1Oc1ccc(N2CC[C@H](Oc3ncccc3C)C2)c(CO)c1 [Compound 1-340]
3. NC(=O)c1cc(-c2ccc(F)cc2)ccc1N1CC[C@H](Oc2ccc(C(F)(F)F)cn2)C1 [Compound 1-65]
4. NC(=O)c1ccc(O[C@H]2CCN(c3ccc(-c4ccccc4)cc3CO)C2)nc1 [Compound 1-144]
5. Cc1cccnc1O[C@H]1CCN(c2ccc(-c3ccccc3)cc2C(C)O)C1 (stereo partly drawn) [Compound 1-169]

Outgoing:
1. 109
2. 74.4
3. 417
4. 4220
5. 655

====

I'd be grateful if you could share measured IC50 for these entries.
Target of assay: hTRPV3 (Homo sapiens (Human), UniProt Q8NET8)
Sequence (Q8NET8 whole entry): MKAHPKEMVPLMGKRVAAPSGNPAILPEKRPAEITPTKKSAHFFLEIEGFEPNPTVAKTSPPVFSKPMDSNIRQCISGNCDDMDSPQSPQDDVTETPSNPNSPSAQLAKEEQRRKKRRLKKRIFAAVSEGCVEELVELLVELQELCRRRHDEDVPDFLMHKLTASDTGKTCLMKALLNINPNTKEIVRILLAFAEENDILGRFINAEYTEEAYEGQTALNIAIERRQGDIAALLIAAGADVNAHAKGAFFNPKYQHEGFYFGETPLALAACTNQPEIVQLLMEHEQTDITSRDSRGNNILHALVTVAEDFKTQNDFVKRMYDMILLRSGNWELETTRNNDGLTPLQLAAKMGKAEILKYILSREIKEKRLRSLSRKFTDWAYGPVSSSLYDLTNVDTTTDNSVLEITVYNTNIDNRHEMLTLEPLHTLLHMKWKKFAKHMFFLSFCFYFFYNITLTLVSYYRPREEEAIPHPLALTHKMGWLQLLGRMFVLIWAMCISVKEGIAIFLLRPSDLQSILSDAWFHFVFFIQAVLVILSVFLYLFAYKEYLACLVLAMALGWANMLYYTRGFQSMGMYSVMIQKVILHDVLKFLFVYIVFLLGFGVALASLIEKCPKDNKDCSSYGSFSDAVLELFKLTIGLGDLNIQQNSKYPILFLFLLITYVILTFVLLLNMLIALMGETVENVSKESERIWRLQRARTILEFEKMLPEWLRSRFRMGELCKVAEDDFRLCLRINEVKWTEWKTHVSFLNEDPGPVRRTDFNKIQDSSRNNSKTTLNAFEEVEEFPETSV
Assay: Whole-cell patch clamp, hTRPV3 Phase 1 / Phase 2 currents
Assay type: cell-based
Experimental parameters: Phase 1 current, inward, whole-cell patch clamp; read-out: hTRPV3 Patch P1 Inwd

CC(C)(C)OC(=O)c1ccccc1N1CC[C@H](Oc2ccc(C(F)(F)F)cn2)C1
> 1000 nM

Would you mind listing IC50 for each of the following compounds?
1. OCc1cc(Oc2ccccc2)ccc1N1CC[C@H](Nc2ncccc2Cl)C1
2. Cc1cccnc1O[C@H]1CCN(c2ccc(-c3ccccc3C#N)nc2CO)C1
3. OCc1ccc(-c2ccccc2)cc1N1CC[C@H](Oc2ccc(C(F)(F)F)cn2)C1
4. CCc1ccccc1Oc1ccc(N2CC[C@H](Nc3ncccc3Cl)C2)c(CO)c1
5. COc1cnc(C(=O)N2CCC(c3ccc(-c4ccccc4C4CC4)cc3CO)C2)cn1 (centres unmarked)
6. NCc1ccccc1N1CC[C@@H](Oc2ccc(C(F)(F)F)cn2)C1
7. OCCc1cc(C(O)c2cccc(F)c2)ccc1N1CC[C@H](Oc2ncccc2Cl)C1 (some centres unmarked)

Outgoing:
["10 to 100 nM", "> 1000 nM", "> 1000 nM", "10 to 100 nM", "10 to 100 nM", "> 1000 nM", "> 1000 nM"]

====

Target of assay: hTRPV3 (Homo sapiens (Human), UniProt Q8NET8)
Assay: Whole-cell patch clamp, hTRPV3 Phase 1 / Phase 2 currents
Type: cell-based
Experimental parameters: Phase 1 current; read-out: hTRPV3 (nM) (Phase 1)
I'd be grateful if you could share measured IC50 for these entries.
One number for each entry, in nM.

Cc1ccc(C(O)c2ccc(N3CC[C@H](Oc4ncccc4Cl)C3)c(CO)c2)cc1 (stereo partly shown)
674
CC(O)c1ccccc1-c1ccc(N2CC[C@H](Oc3ccc(C(F)(F)F)cn3)C2)c(CO)c1 (stereo partly shown)
740
OCc1nc(-c2ccccc2)ccc1N1CC[C@H](Oc2nc(C(F)(F)F)cs2)C1
1130

Dear reader, for each entry below, please note its IC50.
1. CCOc1ccccc1-c1ccc(N2CC[C@H](Oc3ccc(C(F)(F)F)cn3)C2)c(CO)c1
2. Cc1cccnc1O[C@H]1CCN(c2ccc(-c3ccccc3)cc2CCO)C1
3. CCc1ccccc1C(=O)c1ccc(N2CC[C@H](Oc3ncccc3Cl)C2)c(CO)c1 [Compound 1-251]
4. O=C(c1cccc(Cl)c1)c1ccc(CCO)c(N2CC[C@H](Oc3ncccc3Cl)C2)c1
5. OCc1cc(Oc2ccc(Cl)c(Cl)c2)ccc1N1CC[C@H](Oc2ccccn2)C1
6. O=C(Nc1ccc(F)cc1)c1ccc(N2CC[C@H](Oc3ncccc3Cl)C2)c(CCO)c1
7. OCc1cc(Oc2ccc(Cl)cc2)ccc1N1CC[C@H](Oc2ncccc2Cl)C1
8. O=C(c1cccc(Cl)c1)c1ccc(N2CC[C@H](Oc3ncccc3Cl)C2)c(CCO)c1

Outgoing:
1. 101
2. 260
3. 102
4. 229
5. 65.3
6. 3440
7. 22.1
8. 615

For each of the molecules below, note its IC50.
1. Cc1ccccc1-c1ccc(N2CC[C@H](Oc3ncccc3F)C2)c(CO)n1
2. NC(=O)c1cc(-c2ccccn2)ccc1N1CC[C@@H](Oc2ncccc2Cl)C1

Outgoing:
[1160, 3480]
